Values were extracted from patent US20250188167A1.

Tgt: human B7-H3 (human) (UniProt Q5ZPR3)
Assay details: flow cytometry (FACS) on CHO-K1/B7-H3 cells
Measured parameter: EC50 (nM)
All answers are understood in nM, so give the number only.

31H11B1 (antibody, V domains shown) VH: QVQLQQPGAELGKPGTSVKLSCKASGYTFTSYWMHWVKQRPGQGLEWIGHINPNSGSTNQNAKFKNKATLTVDESSSTAYMQLSTLTSEDSAVYYCTRSGSNYRRNYFDYWGQGTTLTVSS VL: DIQMTQSSSYLSVSLGGRVTITCKASDHINNWLAWYQQKPGNAPRLLISGATSLETGVPSRFSGSGSGKDYTLSITSLQTEDVATYYCQQYWSTPLTFGAGTKLELK | 0.977
38F11B2 (antibody, V domains shown) VH: QIQLVQSGPELKKPGETVKISCKASGYTFIDYGMNWVKQAPGKGLKWMGWINIYSGVPTYADDFKGRFAFSLETSANTAYLQINNLKNEDTATYFCARDDGYHYTMNYWGQGTSVTVSS VL: DIVMTQTPLSLPVSLGDQASISCRSSQSLVHSNGITYLHWYLQKSGQSPKLLIYKVSNRFSGVPDRFSGSGSGTAFTLKISRVEAEDLGVYFCSQSTHVPWTFGGGTKLEIK | 0.651

Turning now to a further binder:
Exam item: Using known records, supply EC50 for 12C9F1B5 (antibody, V domains shown) VH: QIQLVQSGPELKKPGETVKISCKASGFTNYGMNWVKQAPGKGLKWMGWINPYSGVPTYADDFKGRFAFSLETSASTAYLQINNLKNEDTATYFCARDDGFHYTMDYWGQGTSVTVSS VL: DVVLTQTPLSLPVSLGDQASISCRSSQNLVHSNGITYLHWYLQKPGQSPKLLIYKVSNRFSGVPDRFSGSGSGTDFTLTISRVEAEDLGVYFCSQSTLVPWTFGGGTKLEIK
Marked response: 4.76
